The measured values listed here are drawn from paper PMC12091851.

biological target: HDAC6 (Homo sapiens, UniProt Q9UBN7)
Sequence (Q9UBN7 whole entry): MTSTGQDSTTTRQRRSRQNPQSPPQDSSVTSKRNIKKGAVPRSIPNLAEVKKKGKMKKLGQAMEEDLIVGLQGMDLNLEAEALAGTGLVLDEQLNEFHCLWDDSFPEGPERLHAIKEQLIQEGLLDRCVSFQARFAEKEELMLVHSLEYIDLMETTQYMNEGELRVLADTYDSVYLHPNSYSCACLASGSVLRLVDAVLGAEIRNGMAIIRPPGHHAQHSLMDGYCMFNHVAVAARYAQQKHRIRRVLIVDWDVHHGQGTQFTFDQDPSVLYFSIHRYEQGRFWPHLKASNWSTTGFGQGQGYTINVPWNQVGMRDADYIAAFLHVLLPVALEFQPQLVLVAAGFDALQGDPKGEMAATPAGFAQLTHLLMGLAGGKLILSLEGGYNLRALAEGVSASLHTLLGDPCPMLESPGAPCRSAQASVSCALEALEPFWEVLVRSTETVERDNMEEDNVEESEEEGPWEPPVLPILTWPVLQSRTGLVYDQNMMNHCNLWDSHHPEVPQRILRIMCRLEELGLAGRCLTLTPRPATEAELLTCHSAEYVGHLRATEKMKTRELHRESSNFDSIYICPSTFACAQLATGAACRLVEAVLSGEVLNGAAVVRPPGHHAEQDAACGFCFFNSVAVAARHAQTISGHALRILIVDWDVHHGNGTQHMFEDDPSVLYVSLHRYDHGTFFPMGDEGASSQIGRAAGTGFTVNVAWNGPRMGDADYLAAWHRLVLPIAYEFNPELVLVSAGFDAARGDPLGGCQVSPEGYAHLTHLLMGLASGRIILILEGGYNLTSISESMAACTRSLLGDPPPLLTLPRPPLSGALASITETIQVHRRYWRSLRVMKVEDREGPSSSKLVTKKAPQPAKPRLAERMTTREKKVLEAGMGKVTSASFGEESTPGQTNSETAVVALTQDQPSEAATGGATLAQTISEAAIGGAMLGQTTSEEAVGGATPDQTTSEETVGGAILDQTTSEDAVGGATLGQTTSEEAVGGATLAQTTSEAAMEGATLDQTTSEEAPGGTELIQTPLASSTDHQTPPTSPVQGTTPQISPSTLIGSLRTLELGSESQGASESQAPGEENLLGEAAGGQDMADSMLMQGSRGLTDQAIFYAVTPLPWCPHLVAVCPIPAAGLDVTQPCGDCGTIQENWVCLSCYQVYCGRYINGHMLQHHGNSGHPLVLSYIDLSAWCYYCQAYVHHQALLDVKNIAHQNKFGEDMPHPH
Metric Name: pIC50
Please keep in mind that pIC50 is minus log10 of the molar concentration; only the number is needed.

Report the value of pIC50 obtained on HDAC6 (Homo sapiens, UniProt Q9UBN7) for O=C(CCCCCCNC(=O)c1ccc(NC(=O)CCCCCCCCCCCN(C(=O)CCl)C(C(=O)NCc2ccccc2)c2ccc(Cl)c(Cl)c2)cc1)NO (stereo not shown) . 7.28
